- target entity: Neuropeptides B/W receptor type 1 (Homo sapiens) (UniProt P48145)
- Sequence (P48145 whole entry, looked up): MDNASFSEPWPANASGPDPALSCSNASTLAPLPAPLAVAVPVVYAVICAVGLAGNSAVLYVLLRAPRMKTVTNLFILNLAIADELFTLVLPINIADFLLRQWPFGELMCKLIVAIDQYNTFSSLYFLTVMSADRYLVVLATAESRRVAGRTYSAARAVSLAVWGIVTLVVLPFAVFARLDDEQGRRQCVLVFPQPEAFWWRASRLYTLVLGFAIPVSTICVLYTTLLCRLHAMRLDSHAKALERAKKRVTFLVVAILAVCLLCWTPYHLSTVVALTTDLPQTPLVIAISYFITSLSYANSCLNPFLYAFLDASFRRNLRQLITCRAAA
- experiment: GPR7 receptor antagonists, confirmation, cell-based, fluorescence, single concentration (AID 1952);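 further: stimulated with the GPR7 agonist NPW; 0% = agonist plus vehicle and 100% = vehicle alone without agonist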
- condition parameters: GPR7-expressing cells, calcium fluorescence antagonist mode; at 4.4 µM
The campaign covered roughly 2,400 compounds. About 1,200 (50%) were called active. No stated cut-off is given here; in the data, active means inhibition above about 24%; inactive means the rest. The set was probably picked from earlier hits. Not all results are given here.
Permitted responses: active, inactive

*Q* Test call, this molecule: CCOc1ccc(Cn2nnc(C(=O)NCc3ccccc3)c2N)cc1
*A* active

*Q* Test call, this molecule: O=C(NCCCN1CCN(c2ccc(F)cc2)CC1)Nc1ccc([N+](=O)[O-])cc1
*A* active

*Q* Test call, this molecule: Cc1ccc(NC(=O)CN2CCC3(O)CCCCC3C2c2ccc3c(c2)OCO3)c(C)c1 (stereo not drawn)
*A* inactive

###

- target entity: Neuropeptides B/W receptor type 1 (Homo sapiens) (UniProt P48145)
- experiment: GPR7 receptor antagonists, confirmation, cell-based, fluorescence, single concentration (AID 1952)
- condition parameters: GPR7-expressing cells, calcium fluorescence antagonist mode; at 4.4 µM; stronger effect = higher value
Screen size: about 2,400 compounds; about 1,200 (50%) were called active. The set was probably picked from earlier hits. The list is a sample of the results.
quantity name: inhibition

*Q* Hello, I am looking for reported inhibition with Neuropeptides B/W receptor type 1 (Homo sapiens) (UniProt P48145) for O=C(Nc1ccccc1F)c1ccc2c(c1)OCO2 . Could you help?
*A* -16.6% (inactive)

*Q* Hello, I am looking for reported inhibition with Neuropeptides B/W receptor type 1 (Homo sapiens) (UniProt P48145) for CCc1c(C)nc2c(-c3ccccc3)c(C)nn2c1Nc1ccc(NC(C)=O)cc1 . Could you help?
*A* 4.93% (inactive)

*Q* Hello, I am looking for reported inhibition with Neuropeptides B/W receptor type 1 (Homo sapiens) (UniProt P48145) for COc1ccc(NS(=O)(=O)c2ccc(NC(=S)NC(=O)CC(C)C)cc2)cc1 . Could you help?
*A* 35.8% (active)

*Q* Hello, I am looking for reported inhibition with Neuropeptides B/W receptor type 1 (Homo sapiens) (UniProt P48145) for CCC(C(=O)Nc1ccc(C(C)C)cc1)c1ccccc1 (centres undefined) . Could you help?
*A* 94.1% (active)

*Q* Hello, I am looking for reported inhibition with Neuropeptides B/W receptor type 1 (Homo sapiens) (UniProt P48145) for CCCCCCCCCCOC(=O)Cn1c(COc2cccc(OC)c2)[n+](C)c2ccccc21 . Could you help?
*A* 78.9% (active)

*Q* Hello, I am looking for reported inhibition with Neuropeptides B/W receptor type 1 (Homo sapiens) (UniProt P48145) for Fc1ccc(-c2ccc(-c3nn4c(-c5ccco5)nnc4s3)o2)cc1 . Could you help?
*A* 8.54% (inactive)

Next up:
*Q* Hello, I am looking for reported inhibition with Neuropeptides B/W receptor type 1 (Homo sapiens) (UniProt P48145) for COc1ccc(C(CCNCc2ccccc2F)c2ccc(F)cc2)cc1 (centres undefined) . Could you help?
*A* 47.2% (active)

###

- target entity: Neuropeptides B/W receptor type 1 (Homo sapiens)
- experiment: GPR7 receptor antagonists, confirmation, cell-based, fluorescence, single concentration (AID 1952)
- condition parameters: GPR7-expressing cells, calcium fluorescence antagonist mode; at 4.4 µM
Screen size: about 2,400 compounds; about 1,200 (50%) were called active. Rule as the data show it: active = inhibition above about 24%; inactive = the rest. So high a share suggests a set chosen from earlier hits. Only a sample is shown.
Permitted responses: active, inactive

Examples with answers:
*Q* Test call, this molecule: Cc1cc(Cl)ccc1OCCCC(=O)Nc1cccc(-n2cnnn2)c1
*A* active

*Q* Test call, this molecule: CN(c1cccc(NC(=O)Nc2ccc(Cl)cc2)c1)S(C)(=O)=O
*A* active

*Q* Test call, this molecule: C=CCNC(=O)COC(=O)c1ccccc1C(=O)N(C)C1CCCCC1
*A* inactive

Please find the next molecule below.
*Q* Test call, this molecule: CN(C)CCCN(C(=O)c1ccc(S(=O)(=O)N2CCCCCC2)cc1)c1nc2ccc(Br)cc2s1
*A* active

###

- target entity: Neuropeptides B/W receptor type 1 (Homo sapiens)
- experiment: GPR7 receptor antagonists, confirmation, cell-based, fluorescence, single concentration (AID 1952);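 further: stimulated with the GPR7 agonist NPW; 0% = agonist plus vehicle and 100% = vehicle alone without agonist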
- condition parameters: GPR7-expressing cells, calcium fluorescence antagonist mode; at 4.4 µM
In all, about 2,400 compounds went through this assay and about 1,200 (50%) were called active. Cut-off read from the data, not from the text of the source: active = inhibition above about 24%; inactive = the rest. The set was probably picked from earlier hits. A selection follows.
Permitted responses: True for active, False for inactive

Examples with answers:
*Q* Test call, this compound: N=c1n(CCc2ccccc2)c2ccccc2n1Cc1ccccc1F
*A* True

*Q* Test call, this compound: O=C(CCCN1CCc2[nH]c3ccc(F)cc3c2C1)c1ccc(F)cc1
*A* False

*Q* Test call, this compound: CN(C)S(=O)(=O)N1CCC(Oc2cccc(C(=O)NCCCC3CCCC3)c2)CC1
*A* True

*Q* Test call, this compound: COc1ccccc1CNC(=O)COc1ccc(C)nc1[N+](=O)[O-]
*A* False

Others:
*Q* Test call, this compound: O=C(Nc1ccc2ccccc2c1)Nc1ccc2snnc2c1
*A* True

*Q* Test call, this compound: O=C(CCc1ccccc1)Nc1ccc(NC(=O)C2CC2)nc1
*A* False

*Q* Test call, this compound: Cc1cc(OCc2ccc(C(=O)Nc3ccc(C(=O)O)cc3)o2)ccc1Cl
*A* True

###

- target entity: Neuropeptides B/W receptor type 1 (Homo sapiens) (UniProt P48145)
- experiment: GPR7 receptor antagonists, confirmation, cell-based, fluorescence, single concentration (AID 1952);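 further: stimulated with the GPR7 agonist NPW; 0% = agonist plus vehicle and 100% = vehicle alone without agonist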
- condition parameters: GPR7-expressing cells, calcium fluorescence antagonist mode; at 4.4 µM; stronger effect = higher value
Screen size: about 2,400 compounds; about 1,200 (50%) were called active. So high a share suggests a set chosen from earlier hits. Not all results are given here.
// values below are reported inhibition
Expressed in %, but write only the number.

Sample answers from the record:
*Q* Can you share its inhibition? I mean this compound: COc1cc(NC(=O)CN2C(=O)NC(C)(c3ccc(OC(F)F)cc3)C2=O)cc(OC)c1OC (stereo not given)
*A* 23.2

*Q* Can you share its inhibition? I mean this compound: Cc1ccccc1CN1C[C@@H]2C[C@@H](c3cn(C)nc3-c3ccccc3)N3CCC[C@@]23C1=O
*A* 21.9

*Q* Can you share its inhibition? I mean this compound: O=C(CSCc1ccc([N+](=O)[O-])cc1)NCCSCc1ccccc1
*A* 35.4

*Q* Can you share its inhibition? I mean this compound: O=C(NCCNc1ccc([N+](=O)[O-])cc1Cl)c1ccccc1F
*A* 18.8

*Q* Can you share its inhibition? I mean this compound: O=C(CN1CCN(C(=S)NC2CCCC2)CC1)Nc1ccc(Oc2ccccc2)cc1
*A* 28.6

Next up:
*Q* Can you share its inhibition? I mean this compound: CCOc1ncccc1C(=O)NCCc1ccc(OC)cc1
*A* 15

###

// values below are reported inhibition
- target entity: Neuropeptides B/W receptor type 1 (Homo sapiens) (UniProt P48145)
- experiment: GPR7 receptor antagonists, confirmation, cell-based, fluorescence, single concentration (AID 1952);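 further: stimulated with the GPR7 agonist NPW; 0% = agonist plus vehicle and 100% = vehicle alone without agonist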
- condition parameters: GPR7-expressing cells, calcium fluorescence antagonist mode; at 4.4 µM; stronger effect = higher value
Screen size: about 2,400 compounds; about 1,200 (50%) were called active. The set was probably picked from earlier hits. A selection follows.
Expressed in %, but write only the number.

Sample answers from the record:
*Q* Can you share its inhibition? I mean this compound: O=C(Nc1ccc2c(c1)OCO2)C1CC(c2c(F)cccc2Cl)=NO1 (centres undefined)
*A* 8.85

*Q* Can you share its inhibition? I mean this compound: CCOC(=O)C1CSC(CC(=O)Nc2ccc(OCC)cc2)C(=O)N1 (centres undefined)
*A* 2.35

*Q* Can you share its inhibition? I mean this compound: CCn1c2ccc(F)cc2c2nnc(SCCN3CCOCC3)nc21
*A* -14.4

Next up:
*Q* Can you share its inhibition? I mean this compound: Cc1ccc2[nH]cc(CCNC(=O)c3ccc([N+](=O)[O-])cc3)c2c1
*A* 40.7

Cited source for all entries: PubChem BioAssay AID1952
